Test system: HIPK2;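 note: KINOMEscan scanMAX binding as percent activity remaining versus control; lower means stronger binding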
Conditions: Compound Concentration (nM):1000
parameter-measured: Percent Control (%)

compound="COc1cc2ncnc(Nc3ccc4c(cnn4Cc4ccccc4)c3)c2cc1OC.Cl [GW282449A]" parameter_measured="Percent Control" unit_tag=% reading=100
compound="COc1cc(N2CCN(C(C)C)CC2)ccc1Nc1nc(Nc2ccc(F)cc2C(=O)NC[C@@H](O)CO)c2cc[nH]c2n1 [GSK1392956A]" parameter_measured="Percent Control" unit_tag=% reading=23
compound=NS(=O)(=O)c1ccc(N/N=C2\C(=O)Nc3ccc(-c4cnco4)cc32)cc1 parameter_measured="Percent Control" unit_tag=% reading=28
compound="COc1ccc2c(-c3ccnc(Nc4cccc(OC(F)(F)F)c4)n3)cnn2n1 [GW810372X]" parameter_measured="Percent Control" unit_tag=% reading=0
compound="CCS(=O)(=O)c1ccc(OC)c(Nc2ncc(-c3cccc(OC)c3)o2)c1 [GW580509X]" parameter_measured="Percent Control" unit_tag=% reading=56
compound=CCc1ccc(Oc2nccc(-c3c(-c4ccc(F)cc4)ncn3C3CCNCC3)n2)cc1 parameter_measured="Percent Control" unit_tag=% reading=92
compound="Cc1cc(O)cc(C)c1/C=C/c1cncc(C(N)=O)c1 [GW435821X]" parameter_measured="Percent Control" unit_tag=% reading=98
compound="COc1cccc(-n2ncc3c(N/N=C/c4ccncc4)ncnc32)c1 [GW784752X]" parameter_measured="Percent Control" unit_tag=% reading=33
compound="CC1=C(C(=O)Nc2ccc3[nH]ncc3c2)C(c2ccc(Cl)c(Cl)c2)CC(=O)N1 (stereo not shown) [GSK299115A]" parameter_measured="Percent Control" unit_tag=% reading=92
compound="CC1=C(C(=O)Nc2ccc3[nH]ncc3c2)C(c2ccc3ccccc3c2)CC(=O)N1 (stereo not shown) [GSK270822A]" parameter_measured="Percent Control" unit_tag=% reading=76

From: paper PMC7826789
